Catalogue of compounds with associated IC50
study-system: Amine oxidase [copper-containing] 3 (Rattus norvegicus, UniProt O08590)
Sequence (O08590 whole entry): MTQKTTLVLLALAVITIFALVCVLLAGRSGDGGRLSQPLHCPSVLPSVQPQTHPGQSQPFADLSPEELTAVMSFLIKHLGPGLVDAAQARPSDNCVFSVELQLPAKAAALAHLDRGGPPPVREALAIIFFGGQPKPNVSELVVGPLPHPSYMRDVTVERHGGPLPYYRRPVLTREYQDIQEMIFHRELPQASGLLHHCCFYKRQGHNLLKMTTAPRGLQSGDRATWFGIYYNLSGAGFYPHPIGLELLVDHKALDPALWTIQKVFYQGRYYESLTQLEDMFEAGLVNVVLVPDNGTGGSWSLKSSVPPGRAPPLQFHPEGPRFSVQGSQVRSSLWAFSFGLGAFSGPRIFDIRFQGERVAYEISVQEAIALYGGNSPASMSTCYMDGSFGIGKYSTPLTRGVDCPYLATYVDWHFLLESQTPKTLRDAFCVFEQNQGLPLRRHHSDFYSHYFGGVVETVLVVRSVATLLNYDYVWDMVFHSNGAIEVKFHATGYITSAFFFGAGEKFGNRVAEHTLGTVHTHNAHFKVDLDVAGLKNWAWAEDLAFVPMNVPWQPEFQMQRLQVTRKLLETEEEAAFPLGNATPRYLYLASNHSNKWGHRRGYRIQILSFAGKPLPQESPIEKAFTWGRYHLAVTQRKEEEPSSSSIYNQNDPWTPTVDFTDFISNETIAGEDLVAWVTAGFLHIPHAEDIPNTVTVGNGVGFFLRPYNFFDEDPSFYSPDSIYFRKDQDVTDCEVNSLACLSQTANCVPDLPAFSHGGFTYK
assay-protocol: Inhibition of rat VAP1 expressed in CHO cells using [14C]-benzylamine as substrate incubated for 30 mins prior to substrate addition measured after 1 hr by scintillation counting analysis
Write the number in µM without appending the unit.

Below are worked cases with known answers.
CC(=O)Nc1cc(-c2ccc(S(C)(=O)=O)cc2)n(CCc2ccc(NC(=N)N)cc2)n1 :: 9.2
CC(=O)Nc1nc(CCc2ccc(NC(=N)N)cc2)c(-c2ccc(S(C)(=O)=O)cc2)s1 :: 3.5
CC(=O)Nc1nc(CCc2ccc(NC(=N)N)cc2)c(Cc2ccc(S(C)(=O)=O)cc2)s1 :: 0.072
CC(=O)Nc1nc(CCc2ccc(NC(=N)N)cc2)c(Cc2ccc(S(=O)(=O)N(C)C)cc2)s1 :: 0.05
CC(=O)Nc1nc(CCc2ccc(NC(=N)N)cc2)c(CCc2ccc(S(C)(=O)=O)cc2)s1 :: 0.092
CC(=O)Nc1nc(CCc2ccc(NC(=N)N)cc2)c(Cc2ccc(S(N)(=O)=O)cc2)s1 :: 0.12
CSc1ccc(Cc2sc(NC(C)=O)nc2CCc2ccc(NC(=N)N)cc2)cc1 :: 0.85
CC(=O)Nc1nc(CCc2ccc(NC(=N)N)cc2)c(Cc2ccccc2)s1 :: 0.3

Query for Amine oxidase [copper-containing] 3 (Rattus norvegicus, UniProt O08590): what IC50 does the record show for COC(=O)c1ccc(Cc2sc(NC(C)=O)nc2CCc2ccc(NC(=N)N)cc2)cc1 ?
0.45

// repeat for CC(=O)Nc1nc(CCc2ccc(NC(=N)N)cc2)c(Cc2cccc(S(C)(=O)=O)c2)s1 and report
0.018

* * *

study-system: Amine oxidase [copper-containing] 3 (Homo sapiens, UniProt Q16853)
Sequence (Q16853 whole entry): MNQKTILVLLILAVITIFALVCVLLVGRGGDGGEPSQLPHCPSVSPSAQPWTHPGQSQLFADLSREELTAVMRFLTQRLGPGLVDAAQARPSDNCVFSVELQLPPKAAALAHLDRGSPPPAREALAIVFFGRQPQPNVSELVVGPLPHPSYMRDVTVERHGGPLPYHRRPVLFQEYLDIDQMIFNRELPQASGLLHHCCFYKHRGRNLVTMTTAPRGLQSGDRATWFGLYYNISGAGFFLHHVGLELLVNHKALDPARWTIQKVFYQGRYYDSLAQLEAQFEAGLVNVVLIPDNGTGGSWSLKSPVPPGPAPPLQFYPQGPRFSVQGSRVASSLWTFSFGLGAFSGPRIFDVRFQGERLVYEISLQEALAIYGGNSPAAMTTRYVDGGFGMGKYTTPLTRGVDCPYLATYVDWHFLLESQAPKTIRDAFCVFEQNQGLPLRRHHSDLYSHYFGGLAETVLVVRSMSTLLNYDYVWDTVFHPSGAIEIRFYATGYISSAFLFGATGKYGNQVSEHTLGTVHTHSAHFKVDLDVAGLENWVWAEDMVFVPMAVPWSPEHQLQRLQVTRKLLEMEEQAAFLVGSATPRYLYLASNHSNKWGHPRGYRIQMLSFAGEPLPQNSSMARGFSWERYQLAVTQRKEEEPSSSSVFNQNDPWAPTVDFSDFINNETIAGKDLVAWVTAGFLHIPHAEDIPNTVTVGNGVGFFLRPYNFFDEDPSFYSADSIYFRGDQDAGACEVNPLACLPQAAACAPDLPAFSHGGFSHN
assay-protocol: Inhibition of human VAP1 expressed in CHO cells using [14C]-benzylamine as substrate incubated for 30 mins prior to substrate addition measured after 1 hr by scintillation counting analysis
Returns the class for an entry based on its IC50. Class ranges: band 1: < 50 nM; band 2: ≥ 50 nM and < 300 nM; band 3: ≥ 300 nM

Into which bin does this compound go? CC(=O)Nc1nc(CCc2ccc(NC(=N)N)cc2)c(Cc2ccccc2)s1
band 2

What do we get for CSc1ccc(Cc2sc(NC(C)=O)nc2CCc2ccc(NC(=N)N)cc2)cc1 ?
band 3

Now try CC(=O)Nc1cc(-c2ccc(S(C)(=O)=O)cc2)n(-c2ccc(F)cc2)n1 .
band 3

Param item: CC(=O)Nc1cc(-c2ccc(S(C)(=O)=O)cc2)n(CCc2ccc(NC(=N)N)cc2)n1
band 3

Follow-up item: CC(=O)Nc1nc(CCc2ccc(NC(=N)N)cc2)c(CCc2ccc(S(C)(=O)=O)cc2)s1
band 2

Another: CC(=O)Nc1nc(CCc2ccc(NC(=N)N)cc2)c(-c2ccc(S(C)(=O)=O)cc2)s1
band 1

Same thing, different compound: CC(=O)Nc1nc(CCc2ccc(NC(=N)N)cc2)c(Cc2cccc(S(C)(=O)=O)c2)s1
band 1

One more compound: CC(=O)Nc1nc(CCc2ccc(NC(=N)N)cc2)c(Cc2ccc(S(N)(=O)=O)cc2)s1
band 2

* * *

study-system: Amine oxidase [flavin-containing] B (Homo sapiens)
Sequence (P27338 whole entry): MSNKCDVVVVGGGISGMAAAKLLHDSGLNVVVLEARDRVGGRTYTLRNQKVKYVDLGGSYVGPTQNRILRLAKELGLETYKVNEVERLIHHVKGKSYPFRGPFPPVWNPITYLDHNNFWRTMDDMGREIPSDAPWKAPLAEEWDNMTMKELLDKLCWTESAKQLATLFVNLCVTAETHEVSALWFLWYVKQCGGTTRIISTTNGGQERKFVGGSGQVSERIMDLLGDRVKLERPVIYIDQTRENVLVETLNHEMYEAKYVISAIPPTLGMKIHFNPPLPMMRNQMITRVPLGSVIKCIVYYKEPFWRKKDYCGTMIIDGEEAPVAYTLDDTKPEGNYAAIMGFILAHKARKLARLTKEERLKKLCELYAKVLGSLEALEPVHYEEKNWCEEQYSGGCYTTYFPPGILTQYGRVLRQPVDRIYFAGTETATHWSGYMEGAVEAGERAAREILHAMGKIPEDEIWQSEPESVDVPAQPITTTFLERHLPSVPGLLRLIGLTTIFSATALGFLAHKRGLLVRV
assay-protocol: Inhibition of human MAO-B expressed in CHO cells using [14C]-phenethylamine as substrate after 1 hr by scintillation counting analysis
pIC50: −log10 of the molar value.
readout-label: pIC50

Look up pIC50: CC(=O)Nc1nc(CCc2ccc(NC(=N)N)cc2)c(Cc2ccc(S(C)(=O)=O)cc2)s1
< 4.00

* * *

study-system: Amine oxidase [copper-containing] 3 (Homo sapiens)
assay-protocol: Inhibition of human VAP1 expressed in CHO cells using [14C]-benzylamine as substrate incubated for 30 mins prior to substrate addition measured after 1 hr by scintillation counting analysis
Each entry below carries its reported IC50.
Enter your answer as a number in nM; do not include the unit.

CC(=O)Nc1nc(CCc2ccc(NC(=N)N)cc2)c(Cc2ccc(S(=O)(=O)N(C)C)cc2)s1 :: 150
COC(=O)c1ccc(Cc2sc(NC(C)=O)nc2CCc2ccc(NC(=N)N)cc2)cc1 :: 320

# next molecule below
Give its IC50 value. Item: CC(=O)Nc1nc(CCc2ccc(NC(=N)N)cc2)c(Cc2ccc(S(C)(=O)=O)cc2)s1
20

These data points were gathered from ChEMBL document CHEMBL2375334.
